Target: hDHFR (Homo sapiens, UniProt P00374)
Construct: gene DHFR
Sequence (P00374 whole entry): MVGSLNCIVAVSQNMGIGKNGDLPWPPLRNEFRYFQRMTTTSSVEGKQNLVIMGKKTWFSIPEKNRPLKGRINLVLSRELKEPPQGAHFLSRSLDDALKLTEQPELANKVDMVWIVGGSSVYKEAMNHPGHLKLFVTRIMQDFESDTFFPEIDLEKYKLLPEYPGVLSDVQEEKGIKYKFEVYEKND
Experiment: biochemical
Set-up: human DHFR enzyme inhibition
Is inhibition at 100 µM at least 20%? Then rule met. If not, rule not met.

> print(dat)
                                   molecule  classification
1  C[C@@H](c1cccc(C(=O)c2ccccc2)c1)c1nnc(N)s1        rule met

Incoming: State whether the measured inhibition at 100 µM reaches 20%, counting equality as reaching it, for COc1cccc(OC)c1-c1nnc(N)s1
Outgoing: rule not met

Incoming: Follow-up entry: COC(=O)C(Cc1ccccc1)Nc1nnc(N)s1 (stereo not shown)
Outgoing: rule not met

Incoming: Queued: N#Cc1ccc(CNc2nnc(N)s2)cc1
Outgoing: rule not met

Incoming: How about COc1ccccc1-c1nnc(N)s1 ?
Outgoing: rule not met

Incoming: Now consider Nc1nnc(NCc2ccc(C(F)(F)F)cc2)s1 and answer again.
Outgoing: rule not met

Incoming: Another: Nc1nnc(-c2cc(O)c(O)c(O)c2)s1
Outgoing: rule met

Incoming: Would you kindly repeat that for Nc1nnc(N)s1 ?
Outgoing: rule met

Incoming: Query Nc1cccc(-c2nnc(N)s2)c1 next
Outgoing: rule not met

* * *

Target: hERG (Homo sapiens)
Construct: gene KCNH2
Sequence (Q12809 whole entry): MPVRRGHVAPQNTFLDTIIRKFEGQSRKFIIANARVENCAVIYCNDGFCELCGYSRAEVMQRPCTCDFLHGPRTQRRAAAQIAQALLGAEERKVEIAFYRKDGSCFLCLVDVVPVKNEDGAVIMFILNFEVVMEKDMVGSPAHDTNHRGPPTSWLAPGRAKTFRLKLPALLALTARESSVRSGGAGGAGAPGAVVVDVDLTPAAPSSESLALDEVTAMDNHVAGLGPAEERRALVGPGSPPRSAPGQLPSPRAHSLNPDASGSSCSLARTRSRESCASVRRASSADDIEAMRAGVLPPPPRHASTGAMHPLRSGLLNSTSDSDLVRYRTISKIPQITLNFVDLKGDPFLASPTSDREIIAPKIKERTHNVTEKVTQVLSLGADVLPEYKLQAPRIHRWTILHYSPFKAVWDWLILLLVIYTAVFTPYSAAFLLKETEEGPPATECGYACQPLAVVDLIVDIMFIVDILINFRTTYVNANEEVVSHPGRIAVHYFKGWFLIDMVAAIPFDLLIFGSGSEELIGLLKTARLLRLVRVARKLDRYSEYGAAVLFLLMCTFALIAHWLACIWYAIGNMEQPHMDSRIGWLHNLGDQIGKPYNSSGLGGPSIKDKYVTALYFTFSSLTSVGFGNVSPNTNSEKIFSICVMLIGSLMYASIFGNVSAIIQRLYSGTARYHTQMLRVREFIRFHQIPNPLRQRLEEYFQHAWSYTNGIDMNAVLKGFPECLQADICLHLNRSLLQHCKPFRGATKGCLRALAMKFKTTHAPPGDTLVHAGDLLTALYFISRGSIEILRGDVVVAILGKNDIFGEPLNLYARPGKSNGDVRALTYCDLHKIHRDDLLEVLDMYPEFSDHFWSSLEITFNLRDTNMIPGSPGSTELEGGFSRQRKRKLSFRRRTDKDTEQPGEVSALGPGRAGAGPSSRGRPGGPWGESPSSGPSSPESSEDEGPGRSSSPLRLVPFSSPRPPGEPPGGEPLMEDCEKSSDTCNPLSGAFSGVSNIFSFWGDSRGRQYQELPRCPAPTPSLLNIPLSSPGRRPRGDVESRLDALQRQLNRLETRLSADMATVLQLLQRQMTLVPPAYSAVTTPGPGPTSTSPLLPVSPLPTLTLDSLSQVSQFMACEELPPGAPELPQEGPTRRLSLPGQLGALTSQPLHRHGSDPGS
Design: hERG inhibition liability assay
readout_type: inhibition at 10 µM (%)
Dear colleague, please return just the value in %, with no unit written.

// known answers, use as guide
> print(dat)
                                   molecule         readout.type  output.unit  recorded.number
1  COc1ccc(-c2cccc(-c3nnc(N)s3)c2)cc1OC [2f]  inhibition at 10 µM            %             15.1
2  Nc1nnc(-c2ccc(OCc3ccc(Cl)c(Cl)c3)cc2)s1 [1r]  inhibition at 10 µM            %             40.7
3                  Nc1nnc(Cc2ccccc2)s1 [3b]  inhibition at 10 µM            %             11.1

Incoming: If you can, please state the reported inhibition at 10 µM value of Nc1nnc(CCc2ccccc2)s1 [3g] .
Outgoing: -1.9

Incoming: Quick one: COc1ccc(-c2ccc(-c3nnc(N)s3)nc2)cc1 [1t]
Outgoing: 59.5

Incoming: Please give the result for COCCCNc1nnc(N)s1 [4s] too.
Outgoing: 3.9

Incoming: Also check N#Cc1ccc(CNc2nnc(N)s2)cc1 [4h]
Outgoing: 82.6

Incoming: Same lookup for Nc1nnc(NCCc2ccccc2)s1 [4n] , please.
Outgoing: 91.4

Incoming: Proceed to Nc1nnc(-c2cc(O)c(O)c(O)c2)s1 [1f]
Outgoing: 3.3

Incoming: // same read-out, input: CN(C)CCc1nnc(N)s1 [3i]
Outgoing: 0.7

Incoming: Would you mind doing Nc1nnc(NCc2ccccc2)s1 [4b] as well?
Outgoing: 1.8

Incoming: And what about the molecule Cc1nnc(N)s1 [3a] ?
Outgoing: 8.2

Incoming: Now this one: COc1cc(-c2nnc(N)s2)cc(OC)c1OC [1e]
Outgoing: 1

Incoming: Then this molecule: Nc1nnc(-c2ccc(-c3nnc(N)s3)c(N)c2)s1 [1o]
Outgoing: -1.9

* * *

Assay: in vitro
Set-up: cytotoxicity, per cent cell growth of A549 cells
Details: human, a549 cells; read-out: % cell growth A549 at 10uM
Method: Independent of the effect of any antiparasitic potential of compounds, they were evaluated using a panel of early-toxicity assays comprising cytotoxicity (A549, human lung adenocarcinoma epithelial cell line and WI-38, human lung fibroblasts), mitochondrial toxicity (786-O, human renal carcinoma cell line), hERG inhibition,[31] cytochrome P450 inhibition (CYP1A2, CYP2C9, CYP2C19, CYP2D6, and CYP3A4),[31] and Aurora B kinase inhibition. […] The hDHFR inhibition was determined at 100 μM. […]
In this section, each of the compounds is paired with its reported viability at 10 µM.
Response body: numeric value in %, unit text excluded.

Incoming: Using the record for Nc1nnc(NCc2ccccc2Cl)s1 [4d] , report its viability at 10 µM.
Outgoing: 115

Incoming: Now consider COc1ccc(-c2ccc(-c3nnc(N)s3)nc2)cc1 [1t] and answer again.
Outgoing: 60.7

Incoming: Now consider Nc1nnc(NCCCc2ccccc2)s1 [4q] .
Outgoing: 106

Incoming: Another compound: COc1ccc(-c2nnc(N)s2)cc1OC [1c]
Outgoing: 105

Incoming: Same question for Nc1cccc(-c2nnc(N)s2)c1 [1j] please.
Outgoing: 134

Incoming: Please answer likewise for Nc1nnc(/C=C/c2ccccc2)s1 [3h]
Outgoing: 138

Incoming: Same question for Nc1nnc(NCc2ccc(C(F)(F)F)cc2)s1 [4f] please.
Outgoing: 113

Incoming: Also COC(=O)C(Cc1ccccc1)Nc1nnc(N)s1 (stereo not drawn) [4p] , if possible.
Outgoing: 126

Incoming: And the next one, Nc1nnc(-c2ccco2)s1 [1s] ?
Outgoing: 132

Incoming: What about this compound? CN(C)CCc1nnc(N)s1 [3i]
Outgoing: 143

Incoming: What about this compound? COc1ccccc1-c1nnc(N)s1 [1h]
Outgoing: 126

Incoming: Then what about the compound Nc1nnc(-c2cc(O)c(O)c(O)c2)s1 [1f] ?
Outgoing: 118

Incoming: Also COc1cccc(CNc2nnc(N)s2)c1 [4i] ?
Outgoing: 107

Incoming: Also check Nc1nnc(-c2ccc(-c3ccccc3)cc2)s1 [2a]
Outgoing: 142

Incoming: # iterate: Nc1nnc(-c2ccc(O)c(O)c2)s1 [1d, 3′,4′-dihydroxy-phenyl-1,3,4-thiadiazole]
Outgoing: 146

Incoming: What about this compound? COc1ccc(-c2cccc(-c3nnc(N)s3)c2)cc1OC [2f]
Outgoing: 106

Incoming: Proceed to Nc1nnc(-c2ccccc2)s1 [1a]
Outgoing: 119
